FYI, the data here is from BigSolDB 2.1.

Settings: in acetone, 308.15 K
Assay Readout: solubility (mole fraction)
Provide a numeric answer; units are not to be included.

# solubility (mole fraction) (compound: COc1ccccc1N1CCN(CC(O)COc2cccc3ccccc23)CC1 (stereo unspecified) ) is 0.0102

----------
Settings: in acetone, 278.15 K
Assay Readout: solubility (mole fraction)

# solubility (mole fraction) (compound: COc1ccccc1N1CCN(CC(O)COc2cccc3ccccc23)CC1 (stereo unspecified) ) is 0.00399

----------
Settings: in ethyl acetate, 278.15 K
Assay Readout: solubility (mole fraction)
Provide a numeric answer; units are not to be included.

# solubility (mole fraction) (molecule: COc1ccccc1N1CCN(CC(O)COc2cccc3ccccc23)CC1 (stereo unspecified) ) is 0.00503
